Target: CDK12 complexed with Cyclin K (Homo sapiens)
Construct: GST (N)
Sequence (Q9NYV4 whole entry): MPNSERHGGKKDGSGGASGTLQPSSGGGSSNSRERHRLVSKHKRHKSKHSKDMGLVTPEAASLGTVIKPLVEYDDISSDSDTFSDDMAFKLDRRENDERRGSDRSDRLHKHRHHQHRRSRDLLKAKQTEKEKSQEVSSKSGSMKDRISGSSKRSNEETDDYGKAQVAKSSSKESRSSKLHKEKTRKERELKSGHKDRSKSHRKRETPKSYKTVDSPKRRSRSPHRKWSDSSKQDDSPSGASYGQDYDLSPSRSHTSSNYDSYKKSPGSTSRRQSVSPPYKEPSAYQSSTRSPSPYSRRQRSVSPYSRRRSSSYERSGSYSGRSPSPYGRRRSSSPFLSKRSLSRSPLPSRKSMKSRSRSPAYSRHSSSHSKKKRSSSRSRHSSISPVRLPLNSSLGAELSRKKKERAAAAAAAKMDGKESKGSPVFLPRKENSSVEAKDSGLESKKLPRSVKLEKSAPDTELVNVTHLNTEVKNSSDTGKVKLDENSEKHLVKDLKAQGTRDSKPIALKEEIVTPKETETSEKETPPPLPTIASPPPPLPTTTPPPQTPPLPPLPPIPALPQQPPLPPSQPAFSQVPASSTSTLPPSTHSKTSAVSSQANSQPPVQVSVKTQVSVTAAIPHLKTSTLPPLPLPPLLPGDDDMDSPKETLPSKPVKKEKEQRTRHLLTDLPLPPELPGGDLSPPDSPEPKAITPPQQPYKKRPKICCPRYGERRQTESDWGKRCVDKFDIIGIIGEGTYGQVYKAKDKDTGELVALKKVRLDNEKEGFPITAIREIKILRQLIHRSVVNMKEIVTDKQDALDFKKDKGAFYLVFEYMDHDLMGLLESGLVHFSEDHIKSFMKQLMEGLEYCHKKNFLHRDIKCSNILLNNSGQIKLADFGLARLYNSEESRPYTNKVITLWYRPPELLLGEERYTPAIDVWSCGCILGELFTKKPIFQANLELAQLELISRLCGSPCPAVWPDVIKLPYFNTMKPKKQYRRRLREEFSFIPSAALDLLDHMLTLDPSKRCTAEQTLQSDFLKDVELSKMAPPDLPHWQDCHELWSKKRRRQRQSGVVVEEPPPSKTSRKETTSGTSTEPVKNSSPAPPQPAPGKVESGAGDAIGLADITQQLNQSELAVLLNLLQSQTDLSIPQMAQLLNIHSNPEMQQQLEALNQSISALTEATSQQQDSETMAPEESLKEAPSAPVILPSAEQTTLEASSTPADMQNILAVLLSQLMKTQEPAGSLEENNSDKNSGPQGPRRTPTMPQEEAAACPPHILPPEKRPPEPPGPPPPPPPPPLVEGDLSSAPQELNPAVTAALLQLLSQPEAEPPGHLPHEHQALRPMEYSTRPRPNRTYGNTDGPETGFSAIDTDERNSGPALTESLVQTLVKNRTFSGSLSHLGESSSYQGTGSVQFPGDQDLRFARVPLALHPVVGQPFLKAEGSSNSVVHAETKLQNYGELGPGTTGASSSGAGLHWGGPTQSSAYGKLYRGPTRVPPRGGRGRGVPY
Sequence (O75909 whole entry partner): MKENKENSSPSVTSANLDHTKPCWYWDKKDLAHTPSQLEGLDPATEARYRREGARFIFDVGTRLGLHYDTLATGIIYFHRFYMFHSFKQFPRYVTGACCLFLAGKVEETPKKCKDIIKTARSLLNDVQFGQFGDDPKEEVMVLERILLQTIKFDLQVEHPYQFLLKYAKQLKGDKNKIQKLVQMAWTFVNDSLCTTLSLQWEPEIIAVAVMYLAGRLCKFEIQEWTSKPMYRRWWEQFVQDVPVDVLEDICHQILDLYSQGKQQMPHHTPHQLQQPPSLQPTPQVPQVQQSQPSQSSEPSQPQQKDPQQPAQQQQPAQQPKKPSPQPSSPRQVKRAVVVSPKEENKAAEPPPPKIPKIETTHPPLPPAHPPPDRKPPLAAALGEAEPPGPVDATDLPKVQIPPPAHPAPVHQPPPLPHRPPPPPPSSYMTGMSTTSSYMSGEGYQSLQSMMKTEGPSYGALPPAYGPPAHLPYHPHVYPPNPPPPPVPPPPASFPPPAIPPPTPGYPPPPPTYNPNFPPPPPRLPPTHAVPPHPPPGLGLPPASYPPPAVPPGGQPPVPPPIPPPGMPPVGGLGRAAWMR
Experiment: CDK enzymatic assay (HTRF, LANCE Ultra kinase assay)
Conditions: 60 minutes pre-incubation with compound; 1 mM ATP
Provide the reported IC50 of each item.

// below: answered compounds
- Chemical structure: "C=CC(=O)Nc1ccc2c(c1)C(=O)N([C@H]1CCC[C@@H](Nc3nc4ccc(-c5cn[nH]c5)c(C(C)C)n4n3)C1)C2"
  IC50: "< 0.05 µM"
- Chemical structure: "C=CC(=O)Nc1ccc(C(=O)N2CC(Nc3nc4cnc(-c5cn[nH]c5)c(OC(C)C)n4n3)C2)cc1"
  IC50: "< 0.05 µM"
- Chemical structure: "C=CC(=O)Nc1cnc(N2CCC[C@@H](Nc3nc4ccc(-c5cn[nH]c5)c(C(C)C)n4n3)C2)c(C)c1"
  IC50: "< 0.05 µM"
- Chemical structure: "C=CC(=O)N(C)c1ccc(C(=O)N2CC[C@@H](Nc3nc4ccc(-c5cn[nH]c5)c(C(C)C)n4n3)C2)cc1"
  IC50: "< 0.05 µM"
- Chemical structure: "C=CC(=O)Nc1ccc(C(=O)N2CCC[C@@H](Nc3nc4ccc(-c5cn[nH]c5)c(N5CCCCC5)n4n3)C2)cc1"
  IC50: "< 0.05 µM"
- Chemical structure: "C=CC(=O)Nc1ccc(C(=O)N2CC[C@@H](Nc3nc4ccc(-c5cn[nH]c5)c(C)n4n3)C2)cc1"
  IC50: "< 0.05 µM"

Lab note: each compound below needs its IC50 filled in.
1. C=CC(=O)Nc1ccc(C(=O)N2CCC[C@@H](Nc3nc4ccc(-c5cn[nH]c5)c(O[C@H]5CCOC5)n4n3)C2)cc1
2. C=CC(=O)Nc1ccc(C(=O)N2CCC[C@@H](Nc3nc4ccc(-c5cn[nH]c5)c(N5CCCC5)n4n3)C2)cc1
3. C=CC(=O)Nc1ccc(C(=O)N2CC[C@@H](Nc3nc4cc(C)c(-c5cn[nH]c5)cn4n3)C2)cc1

Response:
1: < 0.05 µM; 2: < 0.05 µM; 3: 0.05 to 0.5 µM

Lab note: each compound below needs its IC50 filled in.
1. C=CC(=O)Nc1cnc(N2CCC[C@@H](Nc3nc4ccc(-c5cn[nH]c5)c(C(F)(F)F)n4n3)C2)c(C)c1
2. C=CC(=O)Nc1ccc2sc(N3CCC[C@@H](Nc4nc5ccc(-c6cn[nH]c6)c(C)n5n4)C3)nc2c1
3. C=C(F)C(=O)Nc1ccc(C(=O)N2CC[C@@H](Nc3nc4ccc(-c5cn[nH]c5)c(C(C)C)n4n3)C2)cc1

Response:
< 0.05 µM
< 0.05 µM
< 0.05 µM
